# experimentalSystem: T1, recombinant human activated Factor VII (FVIIa) (human, UniProt P08709 61-212; P08709 213-466, ten glutamate residues of the Gla domain may be gamma-carboxylated)
# T1 construct: chains tethered by a disulfide bond; also called Factor VIIa; rFVIIa
# T1 sequence 1: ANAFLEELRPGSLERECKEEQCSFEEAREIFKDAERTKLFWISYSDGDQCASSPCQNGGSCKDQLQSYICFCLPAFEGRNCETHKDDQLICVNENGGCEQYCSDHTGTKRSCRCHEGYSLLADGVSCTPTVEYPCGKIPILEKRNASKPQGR
# T1 sequence 2: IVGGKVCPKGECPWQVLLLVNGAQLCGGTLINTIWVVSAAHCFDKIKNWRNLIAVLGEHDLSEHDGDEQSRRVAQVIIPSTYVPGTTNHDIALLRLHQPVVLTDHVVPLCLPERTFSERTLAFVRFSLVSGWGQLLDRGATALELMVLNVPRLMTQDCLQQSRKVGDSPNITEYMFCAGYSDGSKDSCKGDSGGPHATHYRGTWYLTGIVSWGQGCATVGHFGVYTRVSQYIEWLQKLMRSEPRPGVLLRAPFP
# assayExplanation: BLI (Fortebio)
observable: log10(Kd) (log10 of the value in nM)
The base-10 logarithm of Kd, taken with Kd in nM, is what appears here.

The examples below pair each entry with its known result.
# binder, log10(Kd)
rows = [
    ("VH SEQ ID NO 650 / VL SEQ ID NO 470 (antibody, IgG4, V domains shown, humanized 11F2; IgG4 S228P/kappa) VH: QVQLQESGPGLVKPSQTLSLTCTVSGYSISSDSAWSWIRQPPGKKLEWIGYIQYSGSTNYNPSLKSRVTISRDTSKNQFSLKLSSVTAADTAVYYCARSVNYYGNSFAVGPWGQGTLVTVSS VL: EIVLTQSPATLSLSPGERATLSCRASQGVSDYLHWYQQKPGQAPRLLIKYASQPATGIPARFSGSGSGTDFTLTISSLEPEDFAVYYCQNGHSFPLTFGQGTKLEIK", 0.20),
    ("VH SEQ ID NO 314 / VL SEQ ID NO 462 (antibody, IgG4, V domains shown, humanized 11F2; IgG4 S228P/kappa) VH: QVQLQESGPGLVEPSDTLSLTCAVSGYSISSDSAWSWIRQPPGKGLEWIGYIQYSGSTNYNPSLKSRVTMSVDTSKNQFSLKLSSVTALDTAVYYCARSVNYYGNSFAVGPWGQGTLVTVSS VL: EIVLTQSPATLSLSPGERATLSCRASQGVSDYLHWYQQKPGQAPRLLIKYASQPATGIPARFSGSGSGTDFTLTISSLEPEDFAVYYCQNGHSFPLTFGAGTKLEIK", 1.41),
]

Below is a list of binders. For each, state its recorded log10(Kd).
1. VH SEQ ID NO 546 / VL SEQ ID NO 454 (antibody, IgG4, V domains shown, humanized 11F2; IgG4 S228P/kappa) VH: QVQLQESGPGLVEPSQTLSLTCTVSGYSITSDSAWSWIRQPPGKKLEWIGYIQYSGSTNYNPSLKSRVTISRDTSKNQFSLKLSSVTAADTAVYYCARSVNYYGNSFAVGYWGQGTSVTVSS VL: EIVLTQSPATLSLSPGERATLSCRASQGVSDYLHWYQQKPGEAPRLLIKYASQPATGIPARFSGSGSGTDFTLTISSLEPEDFAVYYCQNGHSFPLTFGQGTKLEIK
2. VH SEQ ID NO 538 / VL SEQ ID NO 374 (antibody, IgG4, V domains shown, humanized 11F2; IgG4 S228P/kappa) VH: QVQLQESGPGLVEPSQTLSLTCTVSGYSITSDSAWSWIRQPPGKKLEWIGYIQYSGSTNYNPSLKSRVTISRDTSKNQFSLKLSSVTAADTAVYYCARSVNYYGNSFAVGYWGQGTLVTVSS VL: EIVLTQSPATLSLSPGERATLSCRASQGLSDYLAWYQQKPGQAPRLLIKYTSQPATGIPARFSGSGSGTDFTLTISSLEPEDFAVYYCQNGHSFPLTFGQGTKLEIK
3. VH SEQ ID NO 618 / VL SEQ ID NO 342 (antibody, IgG4, V domains shown, humanized 11F2; IgG4 S228P/kappa) VH: QVQLQESGPGLVKPSQTLSLTCTVSGYSISSDSAWSWIRQFPGKGLEWIGYIQYSGSTNYNPSLKSRVTISRDTSKNQFSLKLSSVTAADTAVYYCARSVNYYGNSFAVGPWGQGTLVTVSS VL: EIVLTQSPATLSLSPGERATLSCRASQGISDYLHWYQQKPGQAPRLLIKYTSQPATGIPARFSGSGSGRDFTLTISSLEPEDFAVYYCQNGHSFPLTFGAGTKLELK

Response:
1. 0.04
2. 0.87
3. 0.08

The following binders each have a reported value; give each one's log10(Kd).
1. VH SEQ ID NO 578 / VL SEQ ID NO 502 (antibody, IgG4, V domains shown, humanized 11F2; IgG4 S228P/kappa) VH: QVQLQESGPGLVKPSDTLSLTCAVSGYSISSDSAWSWIRQPPGKGLEWIGYIQYSGSTNYNPSLKSRVTMSVDTSKNQFSLKLSSVTALDTAVYYCARSVNYYGNSFAVGPWGQGTLVTVSS VL: EIVLTQSPATLSLSPGERATLSCRASQGVSDYLHWYQQKPGQAPRLLIKYTSQPATGIPARFSGSGSGTDFTLTISSLEPEDFAVYYCQNGHSFPLTFGQGTKLEIK
2. VH SEQ ID NO 530 / VL SEQ ID NO 358 (antibody, IgG4, V domains shown, humanized 11F2; IgG4 S228P/kappa) VH: QVQLQESGPGLVEPSQTLSLTCTVSGYSISSDSAWSWIRQPPGKGLEWIGYIQYSGSTNYNPSLKSRVTISRDTSKNQFSLKLSSVTAADTAVYYCARSVNYYGNSFAVGYWGQGTLVTVSS VL: EIVLTQSPATLSLSPGERATLSCRASQGISDYLHWYQQKPGQAPRLLIKYTSQPATGIPARFSGSGSGTDFTLTISSLEPEDFAVYYCQNGHSFPLTFGQGTKLEIK

Response:
1. 1.38
2. 0.00

Required: log10(Kd), one value per binder below.
1. VH SEQ ID NO 586 / VL SEQ ID NO 350 (antibody, IgG4, V domains shown, humanized 11F2; IgG4 S228P/kappa) VH: QVQLQESGPGLVKPSDTLSLTCAVSGYSISSDSAWSWIRQPPGKGLEWIGYIQYSGSTNYNPSLKSRVTMSVDTSKNQFSLKLSSVTALDTAVYYCARSVNYYGNSFAVGYWGQGTLVTVSS VL: EIVLTQSPATLSLSPGERATLSCRASQGISDYLHWYQQKPGQAPRLLIKYTSQPATGIPARFSGSGSGTDFTLTISSLEPEDFAVYYCQNGHSFPLTFGAGTKLELK
2. VH SEQ ID NO 650 / VL SEQ ID NO 414 (antibody, IgG4, V domains shown, humanized 11F2; IgG4 S228P/kappa) VH: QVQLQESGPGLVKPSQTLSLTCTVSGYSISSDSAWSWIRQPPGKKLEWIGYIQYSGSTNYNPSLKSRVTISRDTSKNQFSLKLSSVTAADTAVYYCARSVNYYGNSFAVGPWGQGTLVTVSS VL: EIVLTQSPATLSLSPGERATLSCRASQGVSDYLAWYQQKPGQAPRLLIKYASQPATGIPARFSGSGSGTDFTLTISSLEPEDFAVYYCQNGHSFPLTFGQGTKLEIK

Response:
[1.08, 1.92]

Just for reference, patent US20220064329A1 is where these values come from.
